Exercise: for every item that follows, state its recorded ELISA signal, Free CD3e 62.5 pmol.
# TARGET_OR_SYSTEM: T1, biotin-labeled human CD137 fused to human IgG1 Fc fragment (human, biotin-labeled)
# T1 construct: also called human CD137-Fc; biotin-human CD137-Fc
# ASSAY_TEXT: bead ELISA, IgG on biotin-human CD137-Fc; competitor: free CD3 epsilon 62.5 pmol
Give bare numbers.

* dBBDu167/L094 (antibody, V domains shown, Purified IgG; Fab genes of the panning output converted into IgG format; also called dBBDu_167/dBBDu.L094) VH: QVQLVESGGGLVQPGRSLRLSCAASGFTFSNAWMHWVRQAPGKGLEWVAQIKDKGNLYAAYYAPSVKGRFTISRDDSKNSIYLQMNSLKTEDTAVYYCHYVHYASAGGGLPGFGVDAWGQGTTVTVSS VL: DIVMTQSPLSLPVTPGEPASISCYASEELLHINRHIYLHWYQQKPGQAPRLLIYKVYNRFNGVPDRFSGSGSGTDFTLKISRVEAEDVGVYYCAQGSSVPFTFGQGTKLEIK | 4370

Continue with the next binder.
Ask: Entry dBBDu186/L100 (antibody, V domains shown, Purified IgG; Fab genes of the panning output converted into IgG format) VH: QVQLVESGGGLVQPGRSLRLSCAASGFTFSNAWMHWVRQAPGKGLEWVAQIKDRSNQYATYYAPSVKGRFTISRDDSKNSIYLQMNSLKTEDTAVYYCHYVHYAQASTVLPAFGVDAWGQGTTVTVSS VL: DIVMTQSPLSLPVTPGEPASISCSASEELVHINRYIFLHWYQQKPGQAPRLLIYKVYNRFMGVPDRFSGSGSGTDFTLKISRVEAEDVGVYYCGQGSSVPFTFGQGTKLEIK has what ELISA signal, Free CD3e 62.5 pmol?
Result: 88900
